- Species: Mus musculus
- Assay Notes: Compound was tested against weight change in mice with L1210 leukemia cells on 10 th Day at Dose 80 mg / kg
- Experimental Setup: at 80 mg/kg
Weight change: recorded values
// units = %; emit number, no label

// worked examples, Weight change included
Nc1nc(N)c2nc(CNc3ccc(C(=O)NC(CCC(=O)Nc4ccc5c(c4)OCO5)C(=O)O)cc3)cnc2n1 (stereo not given): -26
Nc1nc(N)c2nc(CNc3ccc(C(=O)NC(CCC(=O)N[C@]45C[C@H]6C[C@H](C[C@H](C6)C4)C5)C(=O)O)cc3)cnc2n1 (stereo not given in full): 17
Nc1nc(N)c2nc(CNc3ccc(C(=O)NC(CCC(=O)NCc4ccccc4)C(=O)O)cc3)cnc2n1 (stereo not given): -26
CC(C)(C)NC(=O)CCC(NC(=O)c1ccc(NCc2cnc3nc(N)nc(N)c3n2)cc1)C(=O)O (stereo not given): 9

// moving on: another record for Weight change
stdin: # Weight change lookup, item Nc1nc(N)c2nc(CNc3ccc(C(=O)NC(CCC(=O)NCc4ccc(Cl)c(Cl)c4)C(=O)O)cc3)cnc2n1 (stereo not given)
stdout: -16
